Origin of values: patent US20230381328A1

molecular target: monoclonal antibody mAB 198; assay: peptide microarray, fluorescence, cyclic peptide
Where no end group is shown, it is not given here.
measurement_label: relative signal [%] (%)

DVRLRGNPADY (also: cyclic peptide, mode of cyclisation not given here); 25

a = WIDVRLRGNPA (also: cyclic peptide, mode of cyclisation not given here)
b = NPADYGY (also: cyclic peptide, ring type and places not given here) [NPADYGY, cyclic mimotope]
c = RVNPADY (also: cyclic peptide, ring type and places not given here) [RVNPADY, cyclic mimotope]
Could you please order the items by relative signal [%], going from the lowest number to the highest? Give the order by naming the labels one after another as requested.
b, c, a
(b: 11.8%, c: 18.7%, a: 43.2%)
